Hey, just so you know, these numbers are from ChEMBL document CHEMBL3739366.

Tested on: Rattus norvegicus
Assay: AUC (infinity) in Sprague-Dawley rat at 2 mg/kg, po
Format: ADME, organism-based
Set-up: dose 2 mg/kg, route oral, time infinity
Conditions: in vivo
Assign labels as follows, please: true (1) for AUC below 400 ng·h/mL; false (0) for AUC equal to or exceeding 400 ng·h/mL.

Compound structure string | Qualitative label
COc1cc(N2C(=O)N(Cc3c(F)cc(F)cc3F)c3ccccc3S2(=O)=O)cnc1OC | false (0)
COc1cc(N2C(=O)N(Cc3c(F)cc(F)cc3F)c3ccccc3S2(=O)=O)cc(OC)n1 | false (0)
COc1cc(N2C(=O)N(Cc3c(F)cc(F)cc3F)c3ncccc3S2(=O)=O)cnc1OC | false (0)

Continue with the next compound.
Exam item: Would you kindly verify if AUC of COc1cc(N2C(=O)N(Cc3c(F)cc(F)cc3Cl)c3ccccc3S2(=O)=O)cnc1OC is strictly less than 400 ng·h/mL?
Marked response: true (1)

====

Experiment: Half life in Sprague-Dawley rat at 2 mg/kg, po
Format: ADME, organism-based
Settings: in vivo
Reported half-life by item:
Reply with just the number (in h).

Compound structure string | Value
COc1cc(N2C(=O)N(Cc3c(F)cc(F)cc3F)c3ccccc3S2(=O)=O)cnc1OC | 1.6
COc1cc(N2C(=O)N(Cc3c(F)cc(F)cc3F)c3ncccc3S2(=O)=O)cnc1OC | 1.8
COc1ccc(N2C(=O)N(Cc3c(F)cc(F)cc3F)c3ncccc3S2(=O)=O)nc1OC | 1.3
COc1cc(N2C(=O)N(Cc3c(F)cc(F)cc3Cl)c3ccccc3S2(=O)=O)cnc1OC | 1.8

# input for lookup
Note to self: half-life recorded for COc1cc(N2C(=O)N(Cc3c(F)cc(F)cc3F)c3ccccc3S2(=O)=O)cc(OC)n1 was 3.3

====

Assay: Efflux ratio of the compound in human Caco2 cells
Assay type: ADME, cell-based
Settings: Caco-2
Readout kind: efflux ratio
Write no unit; give the number alone.

Note to self: efflux ratio recorded for COc1cc(N2C(=O)N(Cc3c(F)cc(F)cc3F)c3ncccc3S2(=O)=O)cnc1OC was 0.7

====

Test: Half life in dog hepatocytes
Assay type: ADME, cell-based, Canis lupus familiaris, Hepatocyte
Readout kind: half-life

Note to self: half-life recorded for COc1cc(N2C(=O)N(Cc3c(F)cc(F)cc3F)c3ncccc3S2(=O)=O)cnc1OC was > 1.83 h

====

Test: Mean residence time in beagle dog
Format: ADME, organism-based, Canis lupus familiaris
Conditions: in vivo
Readout kind: MRT

Note to self: MRT recorded for COc1cc(N2C(=O)N(Cc3c(F)cc(F)cc3F)c3ncccc3S2(=O)=O)cnc1OC was 4 h

====

Test: Volume of distribution at steady state in Sprague-Dawley rat at 1 mg/kg, iv
Format: ADME, organism-based
Details: in vivo, read-out: Vdss
Reported Vd by item:
Reply with just the number (in L/kg).

Compound structure string | Readout kind | Value
COc1ccc(N2C(=O)N(Cc3c(F)cc(F)cc3F)c3ncccc3S2(=O)=O)nc1OC | Vd | 2.3
COc1cc(N2C(=O)N(Cc3c(F)cc(F)cc3F)c3ncccc3S2(=O)=O)cnc1OC | Vd | 2.1
COc1cc(N2C(=O)N(Cc3c(F)cc(F)cc3F)c3ccccc3S2(=O)=O)cnc1OC | Vd | 2.2

Note to self: Vd recorded for COc1cc(N2C(=O)N(Cc3c(F)cc(F)cc3F)c3ccccc3S2(=O)=O)cc(OC)n1 was 3.9

Note to self: Vd recorded for COc1cc(N2C(=O)N(Cc3c(F)cc(F)cc3Cl)c3ccccc3S2(=O)=O)cnc1OC was 3.5
